Hey, just so you know, these numbers are from paper PMC11513920.

# assay procedure: Mouse plasma pharmacokinetics after oral dose
# Assay type: in vivo, male C57BL/6 mice
# protocol conditions: male, C57BL/6, mouse, po; plasma, p.o. 10 mg/kg
readout name: half-life (min)
Quick note: give the figure in min, leave out the unit.

Form field half-life, entry C[C@H](Cn1cnc2c(N)ncnc21)OCP(=O)(O)OCCCSCCCCCCCCCCCCC1CCCCC1.N [16h] : 184

---

What HLM % remaining was measured for each of the following?
# assay procedure: Human liver microsome stability
# protocol conditions: relative percent remaining of prodrug at 120 min

Lab note: CCCCCCCCCCCCCCCCCCSCCCOP(=O)(O)CO[C@H](C)Cn1cnc2c(N)ncnc21.N [2i] gave HLM % remaining of > 95%

For C[C@H](Cn1cnc2c(N)ncnc21)OCP(=O)(O)OCCCSCCCCCCCCCCC#CC1CCCCC1.N [15h] the molecule record lists HLM % remaining as 70%

Per the record, CCCCCCCCCCCCCCCCCCCCSCCCOP(=O)(O)CO[C@H](C)Cn1cnc2c(N)ncnc21.N [2j] has HLM % remaining of > 95%

Value of measured HLM % remaining for the entry C[C@H](Cn1cnc2c(N)ncnc21)OCP(=O)(O)OCCCSCCCCCCCCCCCCCCC(C)(C)C.N [16e] : > 95%

---

# assay procedure: Mouse plasma pharmacokinetics after oral dose
# Format: in vivo, male C57BL/6 mice
# protocol conditions: male, C57BL/6, mouse, plasma, po; p.o. 10 mg/kg, 2 h; read-out: mean prodrug concentration in plasma
readout name: concentration at 2 h (ng/mL)
API: value field is a number in ng/mL; no unit string.

GET /value?item= C[C@H](Cn1cnc2c(N)ncnc21)OCP(=O)(O)OCCCSCCCCCCCCCCCCC1CCCCC1.N [16h] &field=concentration at 2 h returns 195

Just so you know, measured concentration at 2 h for "CCCCCCCCCCCCCCCCSCCCOP(=O)(O)CO[C@H](C)Cn1cnc2c(N)ncnc21.N" came out at 48

For this molecule ( C[C@H](Cn1cnc2c(N)ncnc21)OCP(=O)(O)OCCCSCCCCCCCCCCCCc1ccc(F)cc1.N [16g] ), measured concentration at 2 h is 55.9

---

# assay procedure: Mouse plasma pharmacokinetics after oral dose
# Type: in vivo, male C57BL/6 mice
# protocol conditions: male, C57BL/6, mouse, plasma, po; p.o. 10 mg/kg, 12 h; read-out: mean prodrug concentration in plasma
readout name: concentration at 12 h (ng/mL)
Hi! Could you send only the number? It should be in ng/mL, unit omitted.

Reported concentration at 12 h ( "CCCCCCCCCCCCCCCCSCCCOP(=O)(O)CO[C@H](C)Cn1cnc2c(N)ncnc21.N" ) = 7.6

Consider C[C@H](Cn1cnc2c(N)ncnc21)OCP(=O)(O)OCCCSCCCCCCCCCCCCc1ccc(F)cc1.N [16g] . Its measured concentration at 12 h is 10.5

Looking up C[C@H](Cn1cnc2c(N)ncnc21)OCP(=O)(O)OCCCSCCCCCCCCCCCCC1CCCCC1.N [16h] , I found its concentration at 12 h recorded as 38.2

---

# assay procedure: Mouse plasma pharmacokinetics after intravenous dose
# Assay type: in vivo, male C57BL/6 mice
# protocol conditions: male, C57BL/6, mouse, iv, i.v. 3 mg/kg
readout name: clearance (mL/min/kg)
Record the value in mL/min/kg, omitting the unit from your answer.

Query C[C@H](Cn1cnc2c(N)ncnc21)OCP(=O)(O)OCCCSCCCCCCCCCCCCc1ccc(F)cc1.N [16g] yields clearance of 134

Sample C[C@H](Cn1cnc2c(N)ncnc21)OCP(=O)(O)OCCCSCCCCCCCCCCCCC1CCCCC1.N [16h] ; clearance observed: 85.8

// clearance lookup, compound = CCCCCCCCCCCCCCCCSCCCOP(=O)(O)CO[C@H](C)Cn1cnc2c(N)ncnc21.N [2a] , result: 147

---

# assay procedure: Mouse plasma pharmacokinetics after intravenous dose
# Format: in vivo, male C57BL/6 mice
# protocol conditions: male, C57BL/6, mouse, iv, i.v. 3 mg/kg, 1 h, read-out: mean prodrug concentration in plasma
readout name: concentration at 1 h

concentration at 1 h recorded for this molecule, "CCCCCCCCCCCCCCCCSCCCOP(=O)(O)CO[C@H](C)Cn1cnc2c(N)ncnc21.N" , is 57.1 ng/mL

For record C[C@H](Cn1cnc2c(N)ncnc21)OCP(=O)(O)OCCCSCCCCCCCCCCCCC1CCCCC1.N [16h] the listed concentration at 1 h is 127 ng/mL

// recorded concentration at 1 h for C[C@H](Cn1cnc2c(N)ncnc21)OCP(=O)(O)OCCCSCCCCCCCCCCCCc1ccc(F)cc1.N [16g] : 71.5 ng/mL

---

Record form. Attribute: Tmax. Fill in for each entry.
# assay procedure: Mouse tissue (liver, kidney, brain) pharmacokinetics after oral dose
# Format: in vivo, male C57BL/6 mice
# protocol conditions: male, C57BL/6, mouse, po; liver, prodrug, p.o. 10 mg/kg
Value expressed in h; do not type the unit.

Notebook: CCCCCCCCCCCCCCCCSCCCOP(=O)(O)CO[C@H](C)Cn1cnc2c(N)ncnc21.N [2a] , Tmax read as 1

Summary for this compound, C[C@H](Cn1cnc2c(N)ncnc21)OCP(=O)(O)OCCCSCCCCCCCCCCCCc1ccc(F)cc1.N [16g] : Tmax is 1

---

Provide the reported Cmax at 8 h of each item.
# assay procedure: Mouse plasma pharmacokinetics after intravenous dose
# Format: in vivo, male C57BL/6 mice
# protocol conditions: male, C57BL/6, mouse, iv, prodrug, i.v. 3 mg/kg
Write the number in ng/mL without appending the unit.

Item: "CCCCCCCCCCCCCCCCSCCCOP(=O)(O)CO[C@H](C)Cn1cnc2c(N)ncnc21.N" | Cmax at 8 h: 2060

Summary for this compound, C[C@H](Cn1cnc2c(N)ncnc21)OCP(=O)(O)OCCCSCCCCCCCCCCCCC1CCCCC1.N [16h] : Cmax at 8 h is 2380

// recorded Cmax at 8 h for C[C@H](Cn1cnc2c(N)ncnc21)OCP(=O)(O)OCCCSCCCCCCCCCCCCc1ccc(F)cc1.N [16g] : 863

---

# Test system: HepaRG cells
# assay procedure: HepaRG cellular uptake
# protocol conditions: 20 µM, 0.5 h
readout name: mean prodrug concentration in HepaRG cells (ng/mL)
Please respond with the number in ng/mL and leave the unit unwritten.

Form: item C[C@H](Cn1cnc2c(N)ncnc21)OCP(=O)(O)OCCCSCCCCCCCCCCCCc1ccc(F)cc1.N [16g] ; test system HepaRG cells; mean prodrug concentration in HepaRG cells: 124.04

Observed mean prodrug concentration in HepaRG cells, HepaRG cells, C[C@H](Cn1cnc2c(N)ncnc21)OCP(=O)(O)OCCCSCCCCCCCCCCCCCCC(C)(C)C.N [16e] : 625.22

Here "CCCCCCCCCCCCCCCCOCCCOP(=O)(O)CO[C@H](C)Cn1cnc2c(N)ncnc21" was tested on HepaRG cells, and its mean prodrug concentration in HepaRG cells came to 258.83

---

# assay procedure: Mouse plasma pharmacokinetics after intravenous dose
# Assay type: in vivo, male C57BL/6 mice
# protocol conditions: male, C57BL/6, mouse, iv, prodrug, i.v. 3 mg/kg, read-out: AUC0–8h
Could you please report measured AUC(0-t) at 8 h for the items listed next?

Record C[C@H](Cn1cnc2c(N)ncnc21)OCP(=O)(O)OCCCSCCCCCCCCCCCCC1CCCCC1.N [16h] . Reported AUC(0-t) at 8 h: 583 ng·h/mL

Just so you know, measured AUC(0-t) at 8 h for C[C@H](Cn1cnc2c(N)ncnc21)OCP(=O)(O)OCCCSCCCCCCCCCCCCc1ccc(F)cc1.N [16g] came out at 373 ng·h/mL

Lab note: measured AUC(0-t) at 8 h of "CCCCCCCCCCCCCCCCSCCCOP(=O)(O)CO[C@H](C)Cn1cnc2c(N)ncnc21.N" was 340 ng·h/mL

---

# assay procedure: Human liver microsome stability
# protocol conditions: human, microsomes, HLM t1/2, HLM 1 mg/mL, 3 μM compound, NADPH, 37 °C, 120 min course
Give half-life at 2.083 h, 3 µM for every item shown.
Respond with the figure and its unit, in that order.

Recorded result, COC(=O)CCCCCCCCCCCCCCCSCCCOP(=O)(O)CO[C@H](C)Cn1cnc2c(N)ncnc21.N [23e] , half-life at 2.083 h, 3 µM: 5.5 min

get_value(item= C[C@H](Cn1cnc2c(N)ncnc21)OCP(=O)(O)OCCCSCCCCCCCCCCCCc1ccccc1.N [16f] , readout=half-life at 2.083 h, 3 µM) returns 68.4 min

GET /value?item= C[C@H](Cn1cnc2c(N)ncnc21)OCP(=O)(O)OCCCSCCCCCCCCCCCOc1ccc(F)cc1.N [23c] &field=half-life at 2.083 h, 3 µM returns 49.7 min

Entry C[C@H](Cn1cnc2c(N)ncnc21)OCP(=O)(O)OCCCSCCCCCCCCCCCOc1ccccc1.N [23a] — recorded half-life at 2.083 h, 3 µM = 8.4 min

Data point: C[C@H](Cn1cnc2c(N)ncnc21)OCP(=O)(O)OCCCSCCCCCCCCCCCOC1CCCCC1.N [23d] ; half-life at 2.083 h, 3 µM = 47.9 min

Entry under test: "CCCCCCCCCCSCCCCCCCCCOP(=O)(O)CO[C@H](C)Cn1cnc2c(N)ncnc21.N" . Its half-life at 2.083 h, 3 µM was 13.3 min

Just so you know, measured half-life at 2.083 h, 3 µM for "CCCCCCCCCCCCCSCCCCCCOP(=O)(O)CO[C@H](C)Cn1cnc2c(N)ncnc21.N" came out at 66.2 min

Measured half-life at 2.083 h, 3 µM, "CCCCCCCCCCCCCCCCCSCCOP(=O)(O)CO[C@H](C)Cn1cnc2c(N)ncnc21.N" : 66.1 min

For this compound ( "CCCCCCCSCCCCCCCCCCCCOP(=O)(O)CO[C@H](C)Cn1cnc2c(N)ncnc21.N" ), measured half-life at 2.083 h, 3 µM is 20.6 min

# compound "CCCCCCCCCCCCCCSCCCOP(=O)(O)CO[C@H](C)Cn1cnc2c(N)ncnc21.N" ; its half-life at 2.083 h, 3 µM = 15.6 min

Data point: "CCCCCCCCCCCCSCCCOP(=O)(O)CO[C@H](C)Cn1cnc2c(N)ncnc21.N" ; half-life at 2.083 h, 3 µM = 11.3 min

The recorded half-life at 2.083 h, 3 µM for entry C[C@H](Cn1cnc2c(N)ncnc21)OCP(=O)(O)OCCCSCCCCCCCCCCC#Cc1ccccc1.N [15f] equals 71.3 min

half-life at 2.083 h, 3 µM for "CCCCSCCCCCCCCCCCCCCCOP(=O)(O)CO[C@H](C)Cn1cnc2c(N)ncnc21.N" is 19.7 min

For reference, reported half-life at 2.083 h, 3 µM for C[C@H](Cn1cnc2c(N)ncnc21)OCP(=O)(O)OCCCSCCCCCCCCCCCSc1ccccc1.N [23b] stands at 7.9 min
